- MEASUREMENT TARGET: T1, human PAC1 receptor extracellular domain (ECD) (human, UniProt P41586 24-153)
- T1 construct: also called PAC1 receptor ECD; PAC1 ECD
- T1 sequence: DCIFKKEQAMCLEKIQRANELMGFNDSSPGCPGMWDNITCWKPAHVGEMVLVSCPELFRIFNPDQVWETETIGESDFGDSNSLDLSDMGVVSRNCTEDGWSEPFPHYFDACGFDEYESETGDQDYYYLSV
- METHOD SUMMARY: yeast-displayed Fab, FACS, 10 nM PAC1 receptor ECD
READOUT LABEL: Mutant vs. 4E4.2 Parent B/D Ratio (fold)
Just the number in fold, nothing appended.

Record excerpt, results attached:
| BINDER | Mutant vs. 4E4.2 Parent B/D Ratio [fold] |
| --- | --- |
| anti-CGRP receptor variant 11, yeast-displayed Fab (Fab, V domains shown, also called Variant Ab ID 11) VH: QVQLVESGGGVVQPGRSLRLSCAASGFWFDTFGMHWVRQAPGKGLEWVAVISFAGEDTHYVDSVKGRFTISRDNSKNTLFLQMNSLRAEDTAVYYCARDRLNYYESYGYYGYHYYGMAVWGQGTTVTVSS VL: QSVLTQPPSVSAAPGQKVTISCSGSRSNIGRYSVSWYQQLPGTAPKLLIYENMFRPRGIPDRFSGSKSGTSATLGITGLQTGDEADYYCGTWDYRMQAVVFGGGTKLTVLG | 1.5 |
| anti-CGRP receptor variant 10, yeast-displayed Fab (Fab, V domains shown, also called Variant Ab ID 10) VH: QVQLVESGGGVVQPGRSLRLSCAASGFFFGSYGMHWVRQAPGKGLEWVAVISFAGEIEHYVDSVKGRFTISRDNSKNTLFLQMNSLRAEDTAVYYCARDRLNYYESSGYYHYKYYGMAVWGQGTTVTVSS VL: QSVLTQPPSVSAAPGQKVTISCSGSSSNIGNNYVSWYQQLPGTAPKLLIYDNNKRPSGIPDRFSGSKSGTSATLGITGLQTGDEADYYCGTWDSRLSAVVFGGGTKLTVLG | 0.9 |

(Q) Give its Mutant vs. 4E4.2 Parent B/D Ratio value. Item: anti-CGRP receptor variant 07, yeast-displayed Fab (Fab, V domains shown, also called Variant Ab ID 07) VH: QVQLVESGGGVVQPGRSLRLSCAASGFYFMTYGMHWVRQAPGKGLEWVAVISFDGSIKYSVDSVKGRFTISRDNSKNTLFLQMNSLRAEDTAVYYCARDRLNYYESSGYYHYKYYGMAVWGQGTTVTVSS VL: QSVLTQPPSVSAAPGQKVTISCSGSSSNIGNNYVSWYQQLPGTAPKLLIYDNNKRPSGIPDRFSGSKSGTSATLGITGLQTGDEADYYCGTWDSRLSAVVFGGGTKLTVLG
(A) 1.2
